These entries and their values trace back to paper PMC9259769.

system: BaGST2; test: Substrate specificity (glutathione transferase and peroxidase assays); assay type: biochemical, Biomphalaria alexandrina; settings: BaGST2
quantityMeasured: Activity toward substrate (in words)

molecule=O=[N+]([O-])c1ccc(Cl)c(Cl)c1 system=BaGST2 endpointresult="low activity"
molecule="O=[N+]([O-])c1ccc(CCBr)cc1 [p-Nitro-phenethylbromide, p-nitrophenethyl-bromide]" system=BaGST2 endpointresult="low activity"

----------
system: BaGST3; assay: Substrate specificity (glutathione transferase and peroxidase assays); format: biochemical, Biomphalaria alexandrina; settings: BaGST3
quantityMeasured: Activity toward substrate (in words)

compound="O=[N+]([O-])c1ccc(CCBr)cc1 [p-Nitro-phenethylbromide, p-nitrophenethyl-bromide]" endpointresult="low activity"
compound="O=[N+]([O-])c1ccc(Cl)c(Cl)c1 [DCNB, 1,2-dichloro-4-nitrobenzene]" endpointresult="low activity"
